# TESTED_SYSTEM: T1, Heat-denatured BSA (bovine serum albumin autoclaved for 15 minutes) (bovine, UniProt P02769 25-607)
# T1 construct: also called heat-denatured BSA solution; reagent for detection
# T1 sequence (P02769 25-607 limits assumed): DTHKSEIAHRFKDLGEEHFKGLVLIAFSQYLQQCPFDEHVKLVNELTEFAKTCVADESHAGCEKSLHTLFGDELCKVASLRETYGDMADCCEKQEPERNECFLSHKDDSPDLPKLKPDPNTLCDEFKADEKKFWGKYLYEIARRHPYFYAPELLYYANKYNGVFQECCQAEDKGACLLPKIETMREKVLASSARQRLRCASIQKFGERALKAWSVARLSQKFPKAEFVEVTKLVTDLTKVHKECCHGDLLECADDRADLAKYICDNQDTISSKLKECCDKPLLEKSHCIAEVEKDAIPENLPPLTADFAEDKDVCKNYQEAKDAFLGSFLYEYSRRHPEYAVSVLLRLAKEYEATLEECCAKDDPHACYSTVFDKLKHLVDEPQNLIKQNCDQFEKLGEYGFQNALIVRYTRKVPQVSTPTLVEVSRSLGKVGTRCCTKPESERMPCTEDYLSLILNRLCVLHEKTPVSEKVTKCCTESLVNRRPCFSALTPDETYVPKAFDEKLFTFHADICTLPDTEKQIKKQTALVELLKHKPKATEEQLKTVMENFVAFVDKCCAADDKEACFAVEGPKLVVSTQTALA
# MEASUREMENT_NOTES: turbidity (OD550), Hill plot analysis; table row for nucleic acid 'No'
PROPERTY_MEASURED: Kd (µM)
Answer with a number only, understood to be in µM.

Reported Kd ( SYSMEHFRWGKPVGKKRRPVKVYP (also called basic peptide of interest) [partial ACTH peptide consisting of the amino acids of positions 1 to 24 of ACTH] ) = 40

These measurements were taken from patent US20170089928A1.
